- Tested on: Plasmodium berghei
- PROTOCOL DETAILS: Screen against P. berghei liver stage (PbLuc), transformed with Luciferase, at 2uM
- Type: functional, HepG2
- CONDITION: tested at 2 uM
Among all 68,000 compounds or so, about 2,700 (4%) showed an effect of 50% or more. This is one part of a sample in which strong results are shown more often than they occur.
Please respond with reported INHIBITION for every item in the list.

CC(C)CC(C#N)NC(=O)COC1CCCCC1 (stereo not given) ... 30.23%
O=C(CC1CC1)N1Cc2nccn2CC(COc2cccnc2)C1 (stereo not given) ... 23.97%
Cc1cc(CN(C)C(=O)NC2CCCC2)no1 ... 29.12%
CCN1CCc2cc(-c3cncn3CC(=O)NC(C)(C)C)ccc21 ... 25.72%
CC(C)CN(CC(O)c1ccc(F)cc1)C(=O)c1cc[nH]n1 (stereo not given) ... 10.91%

Required: INHIBITION, one value per compound below.
1. CC(C)NC(=O)[C@H]1C[C@H]2OCC[C@H]2N(Cc2ccc3ccccc3n2)C1
2. COc1ccc(CNC(C)c2cccc(Br)c2)c(OC)c1OC (stereo not given)
3. N#Cc1cccc(N2CCCC3(CN(C(=O)NC4CC4)CCO3)C2)c1 (stereo not given)
4. COc1ncc(C(=O)N2CCC3(CC2)C(=O)Nc2ccccc23)cn1
5. COCCc1noc(CN(C)c2cc(C)ncn2)n1
6. COc1ccc([C@@H]2CN(C(=O)CS(C)(=O)=O)C[C@H]2NC(C)=O)cc1
7. COCCN(C)CC(=O)N1C[C@@H](NC(C)=O)[C@H](c2ccc(OC)cc2)C1

55.8%
0.8%
6.36%
50.32%
41.63%
1.85%
53.13%
